molecular target: recombinant human ERK5 (Homo sapiens, UniProt Q13164); construct: Catalytically active kinase domain of recombinant human ERK5 enzyme was purchased from Carna Biosciences; purchased Carna Biosciences; assay: TR-FRET (LANCE Ultra) biochemical assay of ERK5 kinase activity; conditions: [ATP] 500 µM; read-out: ERK5 IC50 at [ATP] 500 µM
Sequence (Q13164 55-347 limits assumed): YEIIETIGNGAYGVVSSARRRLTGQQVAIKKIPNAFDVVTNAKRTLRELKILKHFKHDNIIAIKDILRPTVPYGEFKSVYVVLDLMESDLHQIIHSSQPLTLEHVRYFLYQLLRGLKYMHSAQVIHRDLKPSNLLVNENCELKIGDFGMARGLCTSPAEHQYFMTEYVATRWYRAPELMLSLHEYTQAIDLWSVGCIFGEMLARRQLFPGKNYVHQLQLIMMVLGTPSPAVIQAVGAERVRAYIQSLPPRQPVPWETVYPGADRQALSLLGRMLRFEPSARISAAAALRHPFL
property.measured: pIC50
Schema: pIC50 number; meaning minus log10 of the concentration expressed in molar units.

Task: Consider the molecule Cc1cc(Nc2nc(N)nn2C(=O)NC(C)C)ccc1Cl [Compound 5] and give its measured pIC50.
Output: 5.20

---

biological target: recombinant human ERK5 (Homo sapiens, UniProt Q13164); construct: Catalytically active kinase domain of recombinant human ERK5 enzyme was purchased from Carna Biosciences; purchased Carna Biosciences; test: TR-FRET (LANCE Ultra) biochemical assay of ERK5 kinase activity; conditions: ERK5 IC50 at [ATP] 40 µM, [ATP] 40 µM
property.measured: IC50 (nM)
// note: answer is a bare numeric in nM

Task: Consider the compound Cc1cc(Nc2nc(N)nn2C(=O)NC(C)C)ccc1Cl and give its measured IC50.
Output: 2900

---

molecular target: recombinant human ERK5 (Homo sapiens, UniProt Q13164); construct: Catalytically active kinase domain of recombinant human ERK5 enzyme was purchased from Carna Biosciences; purchased Carna Biosciences; assay: TR-FRET (LANCE Ultra) biochemical assay of ERK5 kinase activity; details: ERK5 IC50 at [ATP] 200 µM, [ATP] 200 µM
property.measured: IC50 (µM)
// note: answer is a bare numeric in µM

Task: Fill in the recorded IC50 for this compound, with recombinant human ERK5 (Homo sapiens, UniProt Q13164) as test system: Cc1cc(Nc2nc(N)nn2C(=O)NC(C)C)ccc1Cl
Output: 4.1

---

target: recombinant human ERK5 (Homo sapiens, UniProt Q13164); construct: Catalytically active kinase domain of recombinant human ERK5 enzyme was purchased from Carna Biosciences; purchased Carna Biosciences; test: TR-FRET (LANCE Ultra) biochemical assay of ERK5 kinase activity; settings: ERK5 IC50 at [ATP] 60 µM, [ATP] 60 µM
property.measured: pIC50
Schema: pIC50 number; meaning minus log10 of the concentration expressed in molar units.

Task: Consider the compound Cc1cc(Nc2nc(N)nn2C(=O)NC(C)C)ccc1Cl and give its measured pIC50.
Output: 5.51

---

biological target: recombinant human ERK5 (Homo sapiens, UniProt Q13164); construct: Catalytically active kinase domain of recombinant human ERK5 enzyme was purchased from Carna Biosciences; purchased Carna Biosciences; assay: TR-FRET (LANCE Ultra) biochemical assay of ERK5 kinase activity; settings: ERK5 IC50 at [ATP] 20 µM, [ATP] 20 µM
property.measured: IC50 (nM)
// note: answer is a bare numeric in nM

Task: Consider the molecule Cc1cc(Nc2nc(N)nn2C(=O)NC(C)C)ccc1Cl and give its measured IC50.
Output: 2300

Where do the numbers come from? From paper PMC4854315.
